B1: glmS ribozyme (parent)
chain: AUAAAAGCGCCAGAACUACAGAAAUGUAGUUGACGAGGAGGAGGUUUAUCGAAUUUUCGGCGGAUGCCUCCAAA

- Variants of: B1
- Test protocol: kcat; higher = faster cleavage; RNA array
- Condition: with glucosamine-6-phosphate
Variants at the floor of the assay were thinned out.
Decision: kcat >= 0.0004 s⁻¹ yields fulfilled, all other cases yield not fulfilled.

Here's what some known entries look like.
Mutation annotation	Discrete label
A15G A33C	not fulfilled
G29U C68G	not fulfilled
G13C U54G	not fulfilled
G38U U55G	not fulfilled

*Q* Would you say G13A U45C shows kcat at minimum 0.0004 s⁻¹?
*A* not fulfilled
